Consider the following variants; for each one, report its protein stability index.
B1: PLD5 (parent)
chain: KRTYWPDLDAKIREALVLRSVRVR

variants of: B1; assay: protein stability index of a GFP-peptide fusion (GPS, HEK-293T) (PSI 1-6); higher = more stable; conditions: c terminus: a fixed tail appended;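 also: lentivirally expressed fusions sorted by FACS into six bins by GFP to DsRed ratio, PSI derived from sequencing read proportions per bin multiplied by bin number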
Just the number.

Find the recorded protein stability index belonging to W5K and report it.
2.01

Find the recorded protein stability index belonging to L8D and report it.
2.83

Find the recorded protein stability index belonging to P6W and report it.
3.99

Find the recorded protein stability index belonging to E14K and report it.
1.68

Find the recorded protein stability index belonging to V17G and report it.
2.11

Find the recorded protein stability index belonging to I12M and report it.
2.38

Find the recorded protein stability index belonging to V21Q and report it.
2

Find the recorded protein stability index belonging to V23W and report it.
1.78
